test system: LOX IMVI melanoma; assay: NCI tumour cell line growth inhibition, 48 h; in the data active = GI50 below about 0.43 µM; inactive = the rest
Classes used: y (active), n (inactive)

* CC(C)Cn1cnc2c(N)nc3ccccc3c21 | n
* CCCCCCCCCCCC1=NC(C)(C)CN1C(C)C | n
* CN1CCN(c2cc(F)c(NC3=C(Cl)C(=O)c4ncccc4C3=O)c(F)c2)CC1 | n
* Clc1cccc(-c2cc(-c3ccc4c(c3)OCCO4)[nH]n2)c1 | n
* Cc1cc2c(cc1Cl)SC(=Nc1ccc(Cl)cc1)N(S(=O)(=O)c1ccc(Br)s1)S2(=O)=O | n
* O=C(O)CN(CCN(CC(=O)O)CC(=O)O)CCN(CC(=O)O)CC(=O)O | n
* COc1cc2c(cc1OCCCCCOc1ccc(-c3nc4ccccc4s3)cc1)N=C[C@@H]1CCCN1C2=O | n
* [O-]c1ccccc1C=NCCN=Cc1ccccc1[O-].[O]=[U+2]=[O] | n
* CCN(Cc1ccccc1)c1ccc(/C=C2\COc3ccccc3C2=O)cc1 | n
* CC[O-].CC[O-].[O-]c1ccccc1C=NC12CC3CC(CC(C3)C1)C2.[O-]c1ccccc1C=NC12CC3CC(CC(C3)C1)C2.[Ti+4] | n
* COc1cc(-c2csc(NC(=O)Nc3ccc(Cl)cc3)n2)cc(OC)c1OC | n
* N#CSc1c[nH]c2ccc(/C=C/C(=O)/C=C(O)/C=C/c3ccc4[nH]cc(SC#N)c4c3)cc12 | n
* CCCCCOC(=O)c1c(C)[nH]c(/C=C2\N=C(c3ccc[nH]3)C=C2OC)c1C | y
* Cc1ccc(NC(=O)c2ccoc2)cc1-c1ccc(C(=O)NCC2CC2)cc1 | n
* C=CC(=O)N1CCN([C@@H](CC2CC2)c2ccc([C@H](C)Nc3ncc4c(n3)N(CC)C(=O)OC4)cc2)CC1 | n

* * *

TGI: recorded values
system: ACHN renal; assay: NCI tumour cell line growth inhibition, 48 h
Where a SMILES comes first, the peptide text is derived from it. The star is where a group is joined. Cbz = O=C(OCc1ccccc1)*
measurement label: TGI

- CN1CCN(CCCOC(=O)c2c3c(n4ccccc24)C(=O)c2ncccc2C3=O)CC1: 0.0154 µM
- CC1=NC2(C(=O)O)C3(C(=O)O)N=C(C)OC3(C(F)(F)F)C2(C(F)(F)F)O1 (stereo unspecified): > 100 µM
- Cc1cc2c(cc1Cl)SSc1cc(Cl)c(C)cc1S(=O)(=O)Nc1nc(N)nn1C(O)n1nc(N)nc1NS2(=O)=O: > 10 µM
- O=c1c(-c2cccc3ccccc23)c(-c2cccc3ccccc23)c1=O: > 100 µM
- C[C@]12C(=O)OC[C@H](c3ccccc3)N1C(=O)N(Cc1ccccc1)[C@@H]2CO: > 100 µM
- Clc1ccc2c(NCCCCNc3nc(N4CCOCC4)nc4ccccc34)ccnc2c1: 3.6 µM
- CCCCCOC(=O)c1c(C)[nH]c(/C=C2\N=C(c3ccc[nH]3)C=C2OC)c1C: 1.21 µM
- CCCCCCc1cc2cc(C(=O)Nc3nc(C45CC6CC(CC(C6)C4)C5)cs3)c(=O)oc2cc1O: 20.8 µM
- COc1ccc(C(O)C(c2ccc(OCc3ccccc3)cc2)c2ccc(OCc3ccccc3)cc2)cc1 (stereo unspecified): > 100 µM
- O=c1[nH]nc(-c2ccc3ccccc3c2)[nH]1: > 100 µM
- CN(N=O)C(=O)NC(CCCCNC(=O)OCc1ccccc1)C(=O)OCc1ccccc1 (stereo unspecified): 32.3 µM
- Cc1cccc(C)c1NC(=S)N/C=C(\C#N)C(N)=O: > 100 µM
- COc1ccc(C2c3cc4c(cc3OC(N3CCOCC3)C2C)OCO4)cc1OC (stereo unspecified): > 100 µM
- Cc1ccc(/C=C/C(=O)c2ccc(F)cc2)s1: 4.52 µM
- CC1(N2CCOCC2)CC2C(=[N+]1[O-])CCC/C2=N/O (stereo unspecified): > 100 µM
- O=C(Nc1ccccc1/C=C/c1n[nH]c2ccccc12)c1ccccc1: 20.1 µM
- Cc1cc2c(cc1Cl)SC(=Nc1ccc(Cl)cc1)N(S(=O)(=O)c1ccc(Br)s1)S2(=O)=O: 21.1 µM
- CC(=O)Nc1ccc(CC[C@H]2CCC/C=C/[C@@H]3C[C@H](O)C[C@H]3[C@H](O)/C=C/C(=O)O2)cc1: > 47.2 µM
- CCOc1ccc2c(c1)[n+]([O-])c(C(N)=O)c(N)[n+]2[O-]: > 100 µM
- Cc1cc[c]([Sb]2[O]C(CO)C(C(O)C(O)C(=O)O)[O]2)cc1 (stereo unspecified): > 100 µM
- CCOC(=O)CCC(NC(=O)C(CC(=O)OC)NC(=O)OCc1ccccc1)C(=O)NC(CC(=O)OC)C(=O)NC(CCC(=O)OCC)C(=O)NC(CC(=O)OC)C(=O)NC(CCC(=O)OCC)C(=O)NC(CC(=O)OCC)C(=O)OCC (stereo unspecified) (Cbz-D(OMe)E(OEt)D(OMe)E(OEt)D(OMe)E(OEt)D(OEt)-OEt; configuration not given here): > 100 µM
- C/C(=C1\C(=O)Nc2ccccc21)c1cccc(/C(C)=C2/C(=O)Nc3ccccc32)n1: 48.1 µM
- C[N+](C)(N)Cc1nc(-c2ccc(Cl)cc2)no1: > 100 µM
- COc1ccc2c(c1[N+](=O)[O-])CC[C@@H]1[C@@H]2CC[C@]2(C)C(=O)CC[C@@H]12: > 1000 µM
- N#CSc1c[nH]c2ccc(/C=C/C(=O)/C=C(O)/C=C/c3ccc4[nH]cc(SC#N)c4c3)cc12: 3.3 µM
- O=C(O)CN(CCN(CC(=O)O)CC(=O)O)CCN(CC(=O)O)CC(=O)O: 13.6 µM
- O=C1c2ccccc2C(=O)N1C/C=N/NS(=O)(=O)c1cccc([N+](=O)[O-])c1: > 100 µM
- O=C(CN1CCCCC1)c1ccc2[nH]c(=O)oc2c1: > 100 µM
- O=[N+]([O-])C1=Cc2c(O)ccc(O)c2C2OC=CC12 (stereo unspecified): 29.1 µM
- CSC(=Nc1ccc([N+](=O)[O-])cc1C#N)NC(=O)c1ccccc1: > 100 µM
- COc1ccc(-c2cc(=O)c3c(C)ccnc3[nH]2)cc1: > 100 µM
- O=C(O)C1CCCN1 (stereo unspecified): > 100 µM
- Cc1cc(C)c2c(-c3ccccc3)cc(=O)[nH]c2c1: > 100 µM
- CCCCCCCCCCCC1=NC(C)(C)CN1C(C)C: 15.7 µM
- Cc1ccc2[nH]c3c(c2c1)C1CCC(C(C)(C)C)CC1C1C(=O)N(c2ccc(Oc4ccccc4)cc2)C(=O)C31 (stereo unspecified): > 100 µM
- CCOP(=O)(OCC)C(C(=O)OC)C(=O)C(=O)Nc1cccc([N+](=O)[O-])c1 (stereo unspecified): > 100 µM
